Would you mind telling me the reported Inhibitory effect (%) of each entry?
# Tested on: isolated rat liver mitochondria
# measurement notes: Residual functional capacity / inhibitory effect on ADP-stimulated (state 3) oxygen consumption
# Assay type: biochemical
# reported conditions: test conc. 100 μM
Number first, unit second: that is the form wanted.

// solved cases for Inhibitory effect (%) follow
[[record]]
compound = "Cc1ccc(C(C)C)c(O)c1"
value_kind = "Inhibitory effect (%)"
test_result = "29%"

[[record]]
compound = "COc1cc(C2Oc3cc([C@H]4Oc5cc(O)cc(O)c5C(=O)[C@@H]4O)ccc3OC2CO)ccc1O (some centres unmarked)"
value_kind = "Inhibitory effect (%)"
test_result = "73%"

[[record]]
compound = "COc1ccc(C2CC(=O)c3c(O)cc(O)cc3O2)cc1O (racemic) [(±) hesperetin, hesperetin]"
value_kind = "Inhibitory effect (%)"
test_result = "14%"

[[record]]
compound = "Oc1ccc(C=Cc2cc(O)cc(O)c2)cc1 [resveratrol (trans)]"
value_kind = "Inhibitory effect (%)"
test_result = "62%"

[[record]]
compound = "Oc1ccccc1O"
value_kind = "Inhibitory effect (%)"
test_result = "12%"


Would you be so kind as to report Inhibitory effect (%) for each listed record?
1. Oc1cc(O)cc(/C=C/c2ccc(O)c(O)c2)c1 [piceatannol (trans)]
2. O=C(O)c1ccccc1O
3. O=C(/C=C/c1ccc(O)c(O)c1)OCCc1ccccc1
4. O=c1c(O)c(-c2cc(O)c(O)c(O)c2)oc2cc(O)cc(O)c12
5. C(=Cc1ccccc1)c1ccccc1 [stilbene (trans)]

89%
6%
43%
43%
1%

----------
Would you mind telling me the reported Inhibitory effect (%) of each entry?
# Tested on: isolated rat liver mitochondria
# measurement notes: Residual functional capacity / inhibitory effect on ADP-stimulated (state 3) oxygen consumption
# Type: biochemical
# reported conditions: test conc. 100 μM
Answers are plain numbers, in %.

// solved cases for Inhibitory effect (%) follow
[[record]]
smiles_entry = "O=c1c(O)c(-c2ccccc2O)oc2cc(O)cc(O)c12"
unit_name = "%"
test_result = 67

[[record]]
smiles_entry = "O=C(O)c1cc(O)c(O)c(O)c1"
unit_name = "%"
test_result = 2

[[record]]
smiles_entry = "O=C(/C=C/c1ccc(O)c(O)c1)c1ccc(O)cc1O"
unit_name = "%"
test_result = 29

[[record]]
smiles_entry = "O=C1c2ccccc2C(=O)c2ccccc21"
unit_name = "%"
test_result = 15


Continue with the compound presented below.
GET /value?item= "O=c1c(O)c(-c2ccc(O)c(O)c2)oc2cc(O)cc(O)c12" &field=Inhibitory effect (%) returns 80

----------
# Tested on: isolated rat liver mitochondria
# measurement notes: Uncoupling activity: increase in basal (state 4) oxygen consumption by oxygraphy
# Assay type: biochemical
# reported conditions: test conc. 25 μM; increase in basal (state 4) oxygen consumption as % of average ADP-stimulated (state 3) rate in vehicle-treated mitochondria
Hi, to clarify the labels: label 1 covers Uncoupling (%) from 40% upward, label 0 covers anything below 40%.

Recorded results for 3 compounds are shown here.
[[record]]
smiles_entry = "O=C(CCc1ccc(O)cc1)c1c(O)cc(O)cc1O"
cat = "label 0"

[[record]]
smiles_entry = "Cc1cc(O)c2c(c1)C(=O)c1cc(O)cc(O)c1C2=O"
cat = "label 1"

[[record]]
smiles_entry = "O=c1c(O)c(-c2ccccc2)oc2cc(O)cc(O)c12"
cat = "label 1"


Does "O=C(/C=C/c1ccc(O)cc1)c1ccc(O)cc1O" have a reported Uncoupling (%) of at least 40%?
label 0

Does "COc1cc(/C=C/C(=O)CC(=O)/C=C/c2ccc(O)c(OC)c2)ccc1O" have a reported Uncoupling (%) of at least 40%?
label 1

Does "O=c1c(-c2ccc(O)cc2)coc2cc(O)ccc12" have a reported Uncoupling (%) of at least 40%?
label 0

Does "O=C(/C=C/c1ccc(O)c(O)c1)OCCc1ccccc1" have a reported Uncoupling (%) of at least 40%?
label 1

Does "O=c1c(-c2ccc(O)cc2)coc2cc(O)cc(O)c12" have a reported Uncoupling (%) of at least 40%?
label 0

----------
# Test system: isolated rat liver mitochondria
# measurement notes: Residual functional capacity / inhibitory effect on ADP-stimulated (state 3) oxygen consumption
# Type: biochemical
# reported conditions: test conc. 100 μM; functional capacity (state 3 minus state 4 rate) as % of vehicle-treated mitochondria
value kind: Residual capacity (%)
One number for each entry, in %.

// solved cases for Residual capacity (%) follow
[[record]]
compound = "O=c1c(O)c(-c2ccc(O)cc2O)oc2cc(O)cc(O)c12"
test_result = 39

[[record]]
compound = "C(=Cc1ccccc1)c1ccccc1 [stilbene (trans)]"
test_result = 99

[[record]]
compound = "Cc1cc(O)c2c(c1)C(=O)c1cc(O)cc(O)c1C2=O"
test_result = 0


Would you be so kind as to report Residual capacity (%) for each listed record?
1. O=c1c(O)c(-c2cc(O)c(O)c(O)c2)oc2cc(O)cc(O)c12
2. O=c1cc(-c2ccccc2)oc2ccccc12
3. O=c1c(O)c(-c2ccc(O)c(O)c2)oc2cc(O)cc(O)c12

[46, 75, 12]

----------
Would you mind telling me the reported Residual capacity (%) of each entry?
# Tested on: isolated rat liver mitochondria
# measurement notes: Residual functional capacity / inhibitory effect on ADP-stimulated (state 3) oxygen consumption
# Type: biochemical
# reported conditions: test conc. 100 μM; functional capacity (state 3 minus state 4 rate) as % of vehicle-treated mitochondria
Number first, unit second: that is the form wanted.

[[record]]
smiles_entry = "O=C(O)c1ccccc1O"
test_result = "90 ± 2%"


Would you be so kind as to report Residual capacity (%) for each listed record?
1. Oc1ccccc1O
2. COc1cc(/C=C/C(=O)O)ccc1O

88 ± 1%
91 ± 9%

----------
# Tested on: isolated rat liver mitochondria
# measurement notes: Residual functional capacity / inhibitory effect on ADP-stimulated (state 3) oxygen consumption
# Type: biochemical
# reported conditions: test conc. 100 μM
Hi, to clarify the labels: true (1) covers Inhibitory effect (%) from 9% upward, false (0) covers anything below 9%.

[[record]]
compound = "O=c1ccoc2cc(O)ccc12 [7-hydroxychromone]"
cat = "true (1)"


Does "O=c1c(-c2ccc(O)cc2)coc2cc(O)cc(O)c12" have a reported Inhibitory effect (%) of at least 9%?
false (0)

Does Oc1cc(O)cc(/C=C/c2ccccc2)c1 [trans-pinosylvin, pinosylvin] have a reported Inhibitory effect (%) of at least 9%?
true (1)

Does "COc1cc(/C=C/C(=O)CC(=O)/C=C/c2ccc(O)c(OC)c2)ccc1O" have a reported Inhibitory effect (%) of at least 9%?
true (1)

----------
# Tested on: isolated rat liver mitochondria
# measurement notes: Residual functional capacity / inhibitory effect on ADP-stimulated (state 3) oxygen consumption
# Format: biochemical
# reported conditions: test conc. 100 μM
Would you mind telling me the reported Inhibitory effect (%) of each entry?
Give bare numbers, in %.

// solved cases for Inhibitory effect (%) follow
[[record]]
smiles_entry = "Oc1cccc(O)c1"
value_kind = "Inhibitory effect (%)"
test_result = 9

[[record]]
smiles_entry = "O=C(O)/C=C/c1ccc(O)c(O)c1"
value_kind = "Inhibitory effect (%)"
test_result = 21

[[record]]
smiles_entry = "COc1cc(C=O)ccc1O"
value_kind = "Inhibitory effect (%)"
test_result = 26

[[record]]
smiles_entry = "O=C(CCc1ccc(O)cc1)c1c(O)cc(O)cc1O"
value_kind = "Inhibitory effect (%)"
test_result = 44

[[record]]
smiles_entry = "COc1ccc(-c2coc3cc(O)cc(O)c3c2=O)cc1"
value_kind = "Inhibitory effect (%)"
test_result = 0


Continue with the molecule presented below.
GET /value?item= "O=c1cc(-c2ccc(O)cc2)oc2c(-c3c(O)cc(O)c4c(=O)cc(-c5ccc(O)cc5)oc34)c(O)cc(O)c12" &field=Inhibitory effect (%) returns 5
